Test system: 324938-238-R-J1-PDC complex spheroid viability
Experiment: Anticancer human tumor 324938-238-R-J1-PDC patient-derived bladder carcinoma cell line growth inhibition; active = viability on the fitted dose curve at most 10% of control; inactive = the rest
Details: second compound 1 µM; first compound 0.03 µM
Description: Multicellular complex tumor spheroid response to LSD1 Inhibitor Iadademstat in combination with a variety of drugs and investigational agents in selected tumor cell lines The current study was undertaken to assess response to LSD1 inhibitors in combination with standard-of-care drugs and investigational agents in solid tumor complex spheroid models as well as in the K-562 leukemia. […] Compounds. […] If the clinical Cmax for an agent had not been determined, the highest concentration tested was 10 microM. […]
Outcomes: true = active, false = inactive

{"molecule": "CCN(c1cc(-c2ccc(CN3CCOCC3)cc2)cc(C(=O)NCc2c(C)cc(C)[nH]c2=O)c1C)C1CCOCC1 + NC1CCC(NC2CC2c2ccccc2)CC1", "category": "false"}
{"molecule": "NS(=O)(=O)OCC1CC(n2ccc3c(NC4CCc5ccccc54)ncnc32)CC1O (stereo unspecified) + NC1CCC(NC2CC2c2ccccc2)CC1", "category": "false"}
{"molecule": "CCc1c2c(nc3ccc(O)cc13)-c1cc3c(c(=O)n1C2)COC(=O)[C@]3(O)CC + NC1CC1c1ccc(-c2cccc(O)c2)cc1", "category": "true"}
{"molecule": "COc1cc(C2c3cc4c(cc3C(OC3OC5COC(C)OC5C(O)C3O)C3COC(=O)C23)OCO4)cc(OC)c1O (stereo unspecified) + NC1CC1c1ccc(-c2cccc(O)c2)cc1", "category": "false"}
{"molecule": "Nc1ccccc1NC(=O)c1ccc(CNC(=O)OCc2cccnc2)cc1 + NC1CC1c1ccc(-c2cccc(O)c2)cc1", "category": "false"}
{"molecule": "CCc1c2c(nc3ccc(O)cc13)-c1cc3c(c(=O)n1C2)COC(=O)[C@]3(O)CC + NC1CCC(NC2CC2c2ccccc2)CC1", "category": "true"}
{"molecule": "Nc1ncn(C2CC(O)C(CO)S2)c(=O)n1 (stereo unspecified) + NC1CC1c1ccc(-c2cccc(O)c2)cc1", "category": "false"}
{"molecule": "O=C(C=Cc1cccc(S(=O)(=O)Nc2ccccc2)c1)NO + NC1CCC(NC2CC2c2ccccc2)CC1", "category": "false"}
{"molecule": "NS(=O)(=O)OCC1CC(n2ccc3c(NC4CCc5ccccc54)ncnc32)CC1O (stereo unspecified) + NC1CC1c1ccc(-c2cccc(O)c2)cc1", "category": "false"}
{"molecule": "CCN(c1cc(-c2ccc(CN3CCOCC3)cc2)cc(C(=O)NCc2c(C)cc(C)[nH]c2=O)c1C)C1CCOCC1 + NC1CC1c1ccc(-c2cccc(O)c2)cc1", "category": "false"}
{"molecule": "Nc1ccn(C2OC(CO)C(O)C2(F)F)c(=O)n1 (stereo unspecified) + NC1CC1c1ccc(-c2cccc(O)c2)cc1", "category": "true"}
{"molecule": "COc1cc(C2c3cc4c(cc3C(OC3OC5COC(C)OC5C(O)C3O)C3COC(=O)C23)OCO4)cc(OC)c1O (stereo unspecified) + NC1CCC(NC2CC2c2ccccc2)CC1", "category": "false"}
{"molecule": "Nc1ccccc1NC(=O)c1ccc(CNC(=O)OCc2cccnc2)cc1 + NC1CCC(NC2CC2c2ccccc2)CC1", "category": "false"}
{"molecule": "Nc1ccn(C2OC(CO)C(O)C2(F)F)c(=O)n1 (stereo unspecified) + NC1CCC(NC2CC2c2ccccc2)CC1", "category": "true"}
{"molecule": "O=C(C=Cc1cccc(S(=O)(=O)Nc2ccccc2)c1)NO + NC1CC1c1ccc(-c2cccc(O)c2)cc1", "category": "false"}
{"molecule": "Nc1ncn(C2CC(O)C(CO)S2)c(=O)n1 (stereo unspecified) + NC1CCC(NC2CC2c2ccccc2)CC1", "category": "false"}

====

Listing of recorded viability, T/C by entry.
test system: 324938-238-R-J1-PDC complex spheroid viability; assay: Anticancer human tumor 324938-238-R-J1-PDC cell line growth inhibition; conditions: second compound 0.316 µM; first compound 0.03 µM; stronger effect = lower value;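 also: spheroids also contain HUVEC and human MSCs and agents combined with iadademstat; spheroids exposed to agents for 7 days before readout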

{"molecule": "COc1cc(C2c3cc4c(cc3C(OC3OC5COC(C)OC5C(O)C3O)C3COC(=O)C23)OCO4)cc(OC)c1O (centres undefined) + NC1CCC(NC2CC2c2ccccc2)CC1", "measure unit": "%", "viability, T/C": 64.9}
{"molecule": "NS(=O)(=O)OCC1CC(n2ccc3c(NC4CCc5ccccc54)ncnc32)CC1O (centres undefined) + NC1CCC(NC2CC2c2ccccc2)CC1", "measure unit": "%", "viability, T/C": 88.1}
{"molecule": "O=C(C=Cc1cccc(S(=O)(=O)Nc2ccccc2)c1)NO + NC1CCC(NC2CC2c2ccccc2)CC1", "measure unit": "%", "viability, T/C": 63.2}
{"molecule": "CCc1c2c(nc3ccc(O)cc13)-c1cc3c(c(=O)n1C2)COC(=O)[C@]3(O)CC + NC1CCC(NC2CC2c2ccccc2)CC1", "measure unit": "%", "viability, T/C": 2.68}
{"molecule": "O=C(C=Cc1cccc(S(=O)(=O)Nc2ccccc2)c1)NO + NC1CC1c1ccc(-c2cccc(O)c2)cc1", "measure unit": "%", "viability, T/C": 64.2}
{"molecule": "Nc1ccn(C2OC(CO)C(O)C2(F)F)c(=O)n1 (centres undefined) + NC1CCC(NC2CC2c2ccccc2)CC1", "measure unit": "%", "viability, T/C": 7.37}
{"molecule": "NS(=O)(=O)OCC1CC(n2ccc3c(NC4CCc5ccccc54)ncnc32)CC1O (centres undefined) + NC1CC1c1ccc(-c2cccc(O)c2)cc1", "measure unit": "%", "viability, T/C": 84.8}
{"molecule": "CCN(c1cc(-c2ccc(CN3CCOCC3)cc2)cc(C(=O)NCc2c(C)cc(C)[nH]c2=O)c1C)C1CCOCC1 + NC1CCC(NC2CC2c2ccccc2)CC1", "measure unit": "%", "viability, T/C": 83.1}
{"molecule": "CCc1c2c(nc3ccc(O)cc13)-c1cc3c(c(=O)n1C2)COC(=O)[C@]3(O)CC + NC1CC1c1ccc(-c2cccc(O)c2)cc1", "measure unit": "%", "viability, T/C": 2.79}

====

tested on: 324938-238-R-J1-PDC complex spheroid viability; assay: Anticancer human tumor 324938-238-R-J1-PDC cell line growth inhibition; conditions: curve of first compound; second compound 10 µM;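 also: spheroids also contain HUVEC and human MSCs and agents combined with iadademstat; spheroids exposed to agents for 7 days before readout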
pIC50: −log10 of the molar value.
recorded endpoint: pIC50

{"compound": "O=C(C=Cc1cccc(S(=O)(=O)Nc2ccccc2)c1)NO + NC1CC1c1ccc(-c2cccc(O)c2)cc1", "recorded endpoint": "pIC50", "recorded value": 7.53}
{"compound": "COc1cc(Nc2ncc3c(n2)-c2ccc(Cl)cc2C(c2c(F)cccc2OC)=NC3)ccc1C(=O)O + NC1CC1c1ccc(-c2cccc(O)c2)cc1", "recorded endpoint": "pIC50", "recorded value": 7.97}
{"compound": "COc1cc(C2c3cc4c(cc3C(OC3OC5COC(C)OC5C(O)C3O)C3COC(=O)C23)OCO4)cc(OC)c1O (stereo unspecified) + NC1CC1c1ccc(-c2cccc(O)c2)cc1", "recorded endpoint": "pIC50", "recorded value": 7.42}
{"compound": "CC(C)CC(NC(=O)CNC(=O)c1cc(Cl)ccc1Cl)B1OC(=O)CC(CC(=O)O)(C(=O)O)O1 (stereo unspecified) + NC1CC1c1ccc(-c2cccc(O)c2)cc1", "recorded endpoint": "pIC50", "recorded value": 8.93}
{"compound": "CC1(C)CCC(CN2CCN(c3ccc(C(=O)NS(=O)(=O)c4ccc(NCC5CCOCC5)c([N+](=O)[O-])c4)c(Oc4cnc5[nH]ccc5c4)c3)CC2)=C(c2ccc(Cl)cc2)C1 + NC1CC1c1ccc(-c2cccc(O)c2)cc1", "recorded endpoint": "pIC50", "recorded value": 5.65}
{"compound": "CC1(C)CCC(CN2CCN(c3ccc(C(=O)NS(=O)(=O)c4ccc(NCC5CCOCC5)c([N+](=O)[O-])c4)c(Oc4cnc5[nH]ccc5c4)c3)CC2)=C(c2ccc(Cl)cc2)C1 + NC1CCC(NC2CC2c2ccccc2)CC1", "recorded endpoint": "pIC50", "recorded value": 5.35}

====

System: 324938-238-R-J1-PDC complex spheroid viability
Assay: Anticancer human tumor 324938-238-R-J1-PDC cell line growth inhibition;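 also: spheroids also contain HUVEC and human MSCs and agents combined with iadademstat; spheroids exposed to agents for 7 days before readout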
Details: second compound 3.16 µM; first compound 0.949 µM; stronger effect = lower value
Description: Multicellular complex tumor spheroid response to LSD1 Inhibitor Iadademstat in combination with a variety of drugs and investigational agents in selected tumor cell lines The current study was undertaken to assess response to LSD1 inhibitors in combination with standard-of-care drugs and investigational agents in solid tumor complex spheroid models as well as in the K-562 leukemia. […] Compounds. […] If the clinical Cmax for an agent had not been determined, the highest concentration tested was 10 microM. […]
recorded endpoint: viability, T/C (%)

{"molecule": "Nc1ccccc1NC(=O)c1ccc(CNC(=O)OCc2cccnc2)cc1 + NC1CC1c1ccc(-c2cccc(O)c2)cc1", "measure unit": "%", "recorded value": 37.6}
{"molecule": "COc1cc(C2c3cc4c(cc3C(OC3OC5COC(C)OC5C(O)C3O)C3COC(=O)C23)OCO4)cc(OC)c1O (configuration not stated) + NC1CCC(NC2CC2c2ccccc2)CC1", "measure unit": "%", "recorded value": 21.3}
{"molecule": "O=C(C=Cc1cccc(S(=O)(=O)Nc2ccccc2)c1)NO + NC1CCC(NC2CC2c2ccccc2)CC1", "measure unit": "%", "recorded value": 24.7}
{"molecule": "CCN(c1cc(-c2ccc(CN3CCOCC3)cc2)cc(C(=O)NCc2c(C)cc(C)[nH]c2=O)c1C)C1CCOCC1 + NC1CCC(NC2CC2c2ccccc2)CC1", "measure unit": "%", "recorded value": 72.9}
{"molecule": "NS(=O)(=O)OCC1CC(n2ccc3c(NC4CCc5ccccc54)ncnc32)CC1O (configuration not stated) + NC1CC1c1ccc(-c2cccc(O)c2)cc1", "measure unit": "%", "recorded value": 12.2}
{"molecule": "O=C(C=Cc1cccc(S(=O)(=O)Nc2ccccc2)c1)NO + NC1CC1c1ccc(-c2cccc(O)c2)cc1", "measure unit": "%", "recorded value": 23.6}
{"molecule": "NS(=O)(=O)OCC1CC(n2ccc3c(NC4CCc5ccccc54)ncnc32)CC1O (configuration not stated) + NC1CCC(NC2CC2c2ccccc2)CC1", "measure unit": "%", "recorded value": 15.5}
